- System: Staphylococcus aureus
- Experimental details: Antibacterial activity against methicillin-resistant Staphylococcus aureus 14-4 after 18 to 24 hrs
- Format: functional
The reader will find reported MIC values listed item by item below.
Readout type: MIC (µg/mL)

* CO/N=C1\CN(c2nc3c(cc2F)c(=O)c(C(=O)O)cn3[C@@H]2C[C@@H]2F)CC1(C)N (some centres undefined) | 128
* NCC1CN(c2nc3c(cc2F)c(=O)c(C(=O)O)cn3[C@@H]2C[C@@H]2F)C/C1=N\OCc1ccc(F)cc1 (some centres undefined) | 32
* CC1(CN)CN(c2nc3c(cc2F)c(=O)c(C(=O)O)cn3[C@@H]2C[C@@H]2F)C/C1=N\OCc1ccccc1 (some centres undefined) | 8
* CCO/N=C1\CN(c2nc3c(cc2F)c(=O)c(C(=O)O)cn3[C@@H]2C[C@@H]2F)CC1(C)CN (some centres undefined) | 4

Reference source for all entries: ChEMBL document CHEMBL3632558
